B1: Storkhead-box protein 2, residues 64 to 141; numbered along this chain, Q9P2F5 (parent)
chain: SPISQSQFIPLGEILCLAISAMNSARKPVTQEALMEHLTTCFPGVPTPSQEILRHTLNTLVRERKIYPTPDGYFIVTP

variants of: B1; experiment: abundance fitness (aPCA) (normalised: wild type 0, dead -1); higher = more abundant; growth selection in yeast, the domain comes from the species named; settings: Homo sapiens
So basically: abundance fitness at -0.03 or higher? That is 1. Lower than -0.03? That is 0.

Some entries whose results are on file:
sequence record	category label
SPISQSQFIPLGEILCLAISAMNSARKPVTQEALMEHLTTCFPGVPVPSQEILRHTLNTLVRERKIYPTPDGYFIVTP [T47V]	1
SPISQSQFIPLGEILCLAISAMNSARKPVTQEALMHHLTTCFPGVPTPSQEILRHTLNTLVRERKIYPTPDGYFIVTP [E36H]	0
SPISQSQFIPLGEILCLAISAMNSARKPVTQEALMEHLTTCFPGVPTPSQEIFRHTLNTLVRERKIYPTPDGYFIVTP [L53F]	0

// next entry
Qu. Form field: abundance fitness at least -0.03? Entry: SPISQSQFIPLGEILCLAISAMNSARKPVTQEALMEHLTTCFPGVPTPSQEILRHTLNTLVTERKIYPTPDGYFIVTP [R62T]
Ans. 1
